Source listed as ChEMBL document CHEMBL4513216.

Listed next: entries and their corresponding cytotoxicity at 10 µM.
- protocol.summary: Toxicity liver stage against HepG2, at 10uM
- Type: cell-based
- Parameters: test concentration 10 uM, cell line HepG2-A16-CD81EGFP
- settings: human, HepG2-A16-CD81EGFP cells; read-out: INHIBITION
Write the answer as a number in %, unit excluded.

See these solved cases before continuing.
INSERT INTO results (molecule, metric, experimental_result) VALUES
  ('CC(O)CN1CCN(C(=O)c2ccc(N3CCCC3)nn2)CC1 (stereo unspecified)', 'cytotoxicity at 10 µM', -17.3),
  ('CCCc1nnc(N2CCN(Cc3ccccc3OC)CC2)o1', 'cytotoxicity at 10 µM', -12),
  ('CN1CCCn2c(nc(CNC(=O)c3nccn3C)cc2=O)C1', 'cytotoxicity at 10 µM', 4.68);

Ask: Requested read-out: cytotoxicity at 10 µM. Entry: CCNc1nc2cn(-c3ccc(C)c(C)c3)c(=O)c-2c[nH]1
Reply: 0.255

Ask: Entry CN(Cc1nccn1C)C(=O)c1cccc(CCC(C)(C)O)c1 please
Reply: 1.26

Ask: Input CC(=O)c1ccc(NC(=O)N(CCN(C)C)Cc2ccc(C)s2)cc1
Reply: -16.5
